Experiment: Example 4: Phase I single-dose crossover bioequivalence study, 2.5 mg versus 2 mg tablets, healthy adult volunteers
Type: in vivo, human
Conditions: human, in vivo, po, 2.5 mg, AUC0-inf
Experimental: Objectives: The objective of this study was to investigate the bioequivalence of guanfacine 2.5 mg tablets versus guanfacine 2 mg tablets. Methods: This Phase I study utilized a randomized, open-label, single-dose, three-treatment crossover design. Forty-eight (48) healthy adult volunteers completed the study. All subjects were randomly assigned to one of 6 treatment sequences and received a 2 mg and 2.5 mg tablet of guanfacine. […]
observation type: AUC(0-inf) (ng·h/mL)

structure notation	assay result
N=C(N)NC(=O)Cc1c(Cl)cccc1Cl	84.5

* * *

Assay: Example 3: Phase I single-dose crossover bioequivalence/dose proportionality study, 1 mg, 2 mg, 4 mg tablets, healthy adult volunteers
Assay type: in vivo, human
Details: human, in vivo, po, 4 mg, Cmax
Method: Objectives: The study was designed to assess the bioequivalence of guanfacine 2 mg and 4 mg tablets from table 2 and to investigate the dose proportionality of 1 mg, 2 mg, and 4 mg doses. Methods: This was a Phase I, randomized, open-label, single-dose, five period, four-treatment crossover design with a separate lead-in period. Forty-nine (49) healthy adult volunteers completed the study. During period 1, all subjects received a single 1 mg dose administered after and overnight fast. […]

compound	result units	Cmax
N=C(N)NC(=O)Cc1c(Cl)cccc1Cl [guanfacine]	ng/mL	3.58

* * *

test: Example 2: open-label dose-escalation pharmacokinetic and safety study in children and adolescents with ADHD; assay type: in vivo, human; conditions: both sexes, human, plasma, po, 2 mg, single 2 mg oral dose, Day 1; children 6-12 yrs, ADHD patients, N = 14; read-out: AUC0-∞

structure notation	AUC(0-inf)
N=C(N)NC(=O)Cc1c(Cl)cccc1Cl	65.2 ng·h/mL

* * *

assay: Example 4: Phase I single-dose crossover bioequivalence study, 2.5 mg versus 2 mg tablets, healthy adult volunteers; type: in vivo, human; settings: human, in vivo, t1/2
observation type: half-life

molecule	assay result
N=C(N)NC(=O)Cc1c(Cl)cccc1Cl [guanfacine]	16.7 h

* * *

experiment: Example 3: Phase I single-dose crossover bioequivalence/dose proportionality study, 1 mg, 2 mg, 4 mg tablets, healthy adult volunteers; format: in vivo, human; settings: human, in vivo, po, 2 mg, Vz/F

compound	Vd/F / L
N=C(N)NC(=O)Cc1c(Cl)cccc1Cl [guanfacine]	894

* * *

test: Example 3: Phase I single-dose crossover bioequivalence/dose proportionality study, 1 mg, 2 mg, 4 mg tablets, healthy adult volunteers; type: in vivo, human; conditions: human, in vivo, t1/2

structure notation	result units	half-life
N=C(N)NC(=O)Cc1c(Cl)cccc1Cl	h	17.1

* * *

test: Example 2: open-label dose-escalation pharmacokinetic and safety study in children and adolescents with ADHD; format: in vivo, human; conditions: both sexes, human, plasma, po, 2 mg, Day 14, 2 mg once daily oral; children 6-12 yrs, ADHD patients, N = 14; read-out: AUC0-24
observation type: AUC(0-t) (ng·h/mL)

structure notation	observation type	assay result
N=C(N)NC(=O)Cc1c(Cl)cccc1Cl	AUC(0-t)	70

* * *

Assay: Example 2: open-label dose-escalation pharmacokinetic and safety study in children and adolescents with ADHD
Type: in vivo, human
Conditions: both sexes, human, plasma, po, 2 mg, single 2 mg oral dose, Day 1; adolescents 13-17 yrs, ADHD patients, N = 14; read-out: Tmax
Method: Objective: The objective of this study was to assess the pharmacokinetics of controlled-release guanfacine after a single 2 mg dose or multiple doses of 2 mg and 4 mg from Table 2. Methods: An open-label, dose-escalation study in male and female children (aged 6-12 years) and adolescents (aged 13-17 years) with ADHD. […] Their electrocardiogram readings (ECGs) were within normal ranges, and their blood pressure measurements were within the 95th percentile for their age, height, and gender. […]
observation type: Tmax

structure notation	observation type	assay result
N=C(N)NC(=O)Cc1c(Cl)cccc1Cl	Tmax	4.96 h
